Study system: Acetylcholinesterase (Homo sapiens) (UniProt P22303)
Sequence (P22303 whole entry, looked up): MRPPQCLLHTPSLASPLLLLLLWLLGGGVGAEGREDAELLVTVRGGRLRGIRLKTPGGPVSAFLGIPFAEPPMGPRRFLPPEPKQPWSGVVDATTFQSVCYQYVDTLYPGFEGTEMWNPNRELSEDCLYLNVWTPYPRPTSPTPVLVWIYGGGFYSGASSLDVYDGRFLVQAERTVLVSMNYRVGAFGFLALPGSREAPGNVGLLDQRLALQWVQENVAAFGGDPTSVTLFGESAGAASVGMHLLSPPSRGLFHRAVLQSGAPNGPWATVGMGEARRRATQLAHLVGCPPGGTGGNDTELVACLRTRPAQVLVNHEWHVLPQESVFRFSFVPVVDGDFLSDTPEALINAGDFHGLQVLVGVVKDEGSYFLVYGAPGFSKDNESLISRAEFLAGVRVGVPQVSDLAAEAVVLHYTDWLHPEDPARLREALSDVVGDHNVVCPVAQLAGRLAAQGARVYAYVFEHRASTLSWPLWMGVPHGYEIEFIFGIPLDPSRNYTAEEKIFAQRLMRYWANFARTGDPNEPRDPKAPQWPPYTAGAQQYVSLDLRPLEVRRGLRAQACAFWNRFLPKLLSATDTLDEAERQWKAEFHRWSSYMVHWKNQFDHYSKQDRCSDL
Method summary: Acetylcholinesterase (AChE) small molecule antagonists: fluorescence cell-based qHTS assay (AID 1347398); note: nearly all actives have a fitted effect of over 50% in size
Condition: SH-SY5Y cells; AChE activity; series mostly up to 115 µM
Inconclusive results are not listed. Activity calls are given as the source filed them. Calls come from the whole dose curve.
Outcomes: active, inactive

Molecule: CCOC(=O)[C@@H](C)Oc1ccc(Oc2nc3ccc(Cl)cc3o2)cc1
Assigned class: inactive

Molecule: COc1cccc([C@H](O)C2CCN(CCc3ccc(F)cc3)CC2)c1OC
Assigned class: inactive

Molecule: OCCN1CCOCC1
Assigned class: inactive

Molecule: Cc1cncc(C)c1
Assigned class: inactive

Molecule: Nc1nnc(-c2ccc([N+](=O)[O-])o2)o1
Assigned class: inactive

Molecule: Cc1oncc1C(=O)Nc1ccc(C(F)(F)F)cc1
Assigned class: inactive

Molecule: COc1cccc(OC)c1
Assigned class: inactive

Molecule: COc1ccc(-c2cc(=S)ss2)cc1
Assigned class: inactive

Molecule: CC(C)(O)c1ccc(CNC(=O)c2cccnc2Oc2ccc(F)cc2)cc1
Assigned class: inactive

Molecule: CCc1cc(SCc2sc(-c3ccc(C(F)(F)F)cc3)nc2CN2CCN(c3ccc(OC)cc3)CC2)ccc1OCC(=O)O
Assigned class: inactive

Molecule: C=CC(=O)OCC1CCCO1 (stereo not drawn)
Assigned class: inactive

Molecule: Cc1nc2n(c(=O)c1CCN1CCC(C(=O)c3ccc(F)cc3)CC1)CCS2
Assigned class: active

Molecule: COc1ccccc1NC(=O)c1cc2ccccc2cc1O
Assigned class: inactive

====

Study system: Acetylcholinesterase (Homo sapiens)
Method summary: Acetylcholinesterase (AChE) small molecule antagonists: fluorescence cell-based qHTS assay (AID 1347398); note: nearly all actives have a fitted effect of over 50% in size
Condition: SH-SY5Y cells; AChE activity; series mostly up to 115 µM
Results filed as inconclusive are left out. The source made the active and inactive calls. The call rests on the fitted dose curve.
Outcomes: active, inactive

Compound: Cc1cccc(CN2CCN(C(c3ccccc3)c3ccc(Cl)cc3)CC2)c1 (configuration not stated)
Assigned class: inactive
--
Compound: S=C([S-])NCCNC(=S)[S-].[Mn+2]
Assigned class: active
--
Compound: c1ccc(-c2nc3ccccc3[nH]2)cc1
Assigned class: inactive
--
Compound: C1=COCCC1
Assigned class: inactive
--
Compound: CC(=O)CCC1=C(C)CCCC1(C)C
Assigned class: inactive
--
Compound: CC(C)C(=O)OCCc1ccccc1
Assigned class: inactive
--
Compound: CCC=CC#N
Assigned class: inactive
--
Compound: CCC(C)C(=O)OCCc1ccccc1 (configuration not stated)
Assigned class: inactive
--
Compound: CC(=O)c1ccc[nH]1
Assigned class: inactive
--
Compound: SCCCCCCCCS
Assigned class: inactive
--
Compound: FC1(F)C(F)(F)C(F)(F)C2(F)C(F)(C1(F)F)C(F)(F)C(F)(F)C1(F)C(F)(F)C(F)(F)C(F)(F)C(F)(F)C12F (configuration not stated)
Assigned class: inactive
--
Compound: N#CC1(c2ccc(F)cc2)CCC(=O)CC1
Assigned class: inactive
--
Compound: CCCCCCOC(=O)C(C)CC (configuration not stated)
Assigned class: inactive
--
Compound: COC(=O)[C@@H]1[C@H]2C[C@H]3c4[nH]c5ccccc5c4CCN3C[C@@H]2CC[C@@H]1O
Assigned class: inactive
--
Compound: CCN1CCN(c2cc3c(cc2F)c(=O)c(C(=O)O)cn3C2CC2)CC1
Assigned class: inactive
--
Compound: CC(=O)Nc1cccc(N)c1
Assigned class: inactive
--
Compound: COC(=O)[C@]1(C)CCC[C@@]2(C)[C@H]1CC=C1C=C(C(C)C)CC[C@@H]12
Assigned class: inactive
--
Compound: Cc1ccc(C=O)s1
Assigned class: inactive
--
Compound: O=[N+]([O-])c1ccc(Cl)cc1Cl
Assigned class: inactive
--
Compound: Cc1nc([N+](=O)[O-])cn1-c1ccc([N+](=O)[O-])cc1
Assigned class: inactive
--
Compound: O=C1CC[C@@H](C(=O)O)N1
Assigned class: inactive
--
Compound: C=C(C)CCO
Assigned class: inactive
--
Compound: CC(O)C1CCCCC1 (configuration not stated)
Assigned class: inactive
--
Compound: c1csc(SSc2cccs2)c1
Assigned class: inactive
--
Compound: CCC(=O)O[C@]1(C(=O)COC)[C@@H](C)C[C@H]2[C@@H]3CCC4=CC(=O)C=C[C@]4(C)C3(F)[C@@H](O)C[C@@]21C (some centres not stated)
Assigned class: inactive
--
Compound: O=C(N[C@H](CO)[C@H](O)c1ccc([N+](=O)[O-])cc1)C(Cl)Cl
Assigned class: inactive
--
Compound: CCCCCCCCCCCC(=O)OCC
Assigned class: inactive
